target: Torsin-1A-interacting protein 2 (Homo sapiens); assay: small molecules binding lysate-expressed LULL1 – cell lysate, human LULL1 lysate, 635/667 nm fluorescence, primary screen (AID 1092); details: small-molecule microarray, hLULL1 lysate binding, 635 nm fluorescence; higher = more signal;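 also: probe is lysate of COS7 cells overexpressing human LULL1; score merges per-feature 667 nm fluorescence with signal-to-noise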
property_measured: composite z-score
Number only, please.

Consider the reported composite z-score for these molecules:
| molecule | composite z-score |
| --- | --- |
| CCOC(=O)C1=CC[C@@H](c2ccc(N(CC)CC)cc2)N(S(=O)(=O)c2ccc(C)cc2)[C@H]1c1ccc([N+](=O)[O-])cc1 | 2.29 |
| CCCCC=C[C@@H](NC(=O)CCc1ccccc1)c1ccccc1 | 1.43 |
| C#CCNS(=O)(=O)N(C)C | 0.43 |
| C[C@H]1ON(c2ccccc2)[C@@H](c2ccccc2)[C@@H]1C(=O)N1C(=O)OC[C@@H]1c1ccccc1 | 0.352 |

// below: composite z-score requested for another molecule
Q: What measured composite z-score goes with CC(C)c1ccc(NN2C(C(O)c3ccccn3)C=CC3C(=O)N(c4ccccc4)C(=O)C32)cc1 (stereo not given) ?
Result: 3.7
